The values you see were collected from PubChem BioAssay (NCATS).

# Assay remarks: Viability qHTS for spleen associated tyrosine kinase inhibitor (SYKi) drug resistant MV4-11 cells (AID 1963824); further: nearly all actives have a fitted effect of over 35% in size
# Recorded conditions: SYKi-resistant MV4-11 viability, CellTiter-Glo, 72 h; series mostly up to 45 µM
Records with an inconclusive call do not appear. Active and inactive are the calls of the source. The call rests on the fitted dose curve; in most records, active means well fitted cell-killing curve with a large enough effect; inconclusive means small, poorly fitted or top-dose-only effect, or effect the other way; inactive means no such curve, though single readings can be large or run the other way.
Classes used: active, inactive

- Compound: "CC(C(=O)O)c1cccc(C(=O)c2ccccc2)c1 (centres undefined)"
  Category: "inactive"
- Compound: "CC(=O)OC1(C)CC(O)C2(O)C=COC(OC3OC(CO)C(O)C(O)C3O)C12 (centres undefined)"
  Category: "inactive"
- Compound: "O=C(N/N=C/c1ccccc1O)c1ccncc1"
  Category: "active"
- Compound: "CC1(C)Cc2c(-c3ccccc3)c(-c3ccc(Cl)cc3)c(CC(=O)O)n2C1"
  Category: "active"
- Compound: "Cn1c(=O)c(F)c(Nc2ccc(I)cc2F)c2c(=O)n(CC(O)CO)cnc21 (centres undefined)"
  Category: "active"
- Compound: "COc1ccc(-c2c(C)nn3c(NCCN4CCOCC4)cc(C)nc23)cc1OC"
  Category: "active"
- Compound: "CC[C@H](CC[C@@H](C)[C@H]1CC[C@H]2[C@@H]3CC=C4C[C@@H](O)CC[C@]4(C)[C@H]3CC[C@]12C)C(C)C"
  Category: "inactive"
- Compound: "CC(=O)C1CCC2C3CCC4=CC(=O)CCC4(C)C3CCC12C (centres undefined)"
  Category: "active"
- Compound: "CCOC(=O)N1c2ccc(C(F)(F)F)cc2[C@@H](N(Cc2cc(C(F)(F)F)cc(C(F)(F)F)c2)C(=O)OC)C[C@H]1CC"
  Category: "active"
- Compound: "CCNC1(C(N)=O)CN(c2nc(C)nc3c(-c4ccc(Cl)cc4)c(-c4ccccc4Cl)nn23)C1"
  Category: "active"
- Compound: "CC(C)C1(O[C@@H]2O[C@H](CO)[C@@H](O)[C@H](O)[C@H]2O)CC=C(CO)CC1 (some centres undefined)"
  Category: "inactive"
- Compound: "O=C1c2c(O[C@@H]3O[C@H](CO)[C@@H](O)[C@H](O)[C@H]3O)cc(O)cc2OC1(O)Cc1ccc(O)cc1 (some centres undefined)"
  Category: "active"
- Compound: "CC(C)=CC[C@@H](O)C1=CC(=O)c2c(O)ccc(O)c2C1=O"
  Category: "active"
- Compound: "O=C(N[C@@H](c1ccccc1)[C@@H]1CCCCN1)c1cccc(C(F)(F)F)c1Cl"
  Category: "active"
- Compound: "O=C(Cn1ccnc1[N+](=O)[O-])NCCO"
  Category: "inactive"
- Compound: "COc1cc(OCc2cccc(-c3ccccc3)c2C)cc(OC)c1CN1CCCC[C@H]1C(=O)O"
  Category: "active"
- Compound: "O=C(Nc1ccc(OC(F)(F)Cl)cc1)c1cnc(N2CC[C@@H](O)C2)c(-c2ccn[nH]2)c1"
  Category: "active"
- Compound: "CN1C(C(=O)Nc2ccccn2)=C(O)c2sccc2S1(=O)=O"
  Category: "inactive"
- Compound: "O=C1N(c2ccccc2)c2ccccc2C1(Cc1ccncc1)Cc1ccncc1"
  Category: "inactive"
- Compound: "CC(=O)Nc1ccc(O)cc1"
  Category: "inactive"
- Compound: "c1ccc2c(-c3cnn4cc(-c5ccc(N6CCNCC6)cc5)cnc34)ccnc2c1"
  Category: "active"
- Compound: "COc1ccccc1OCCNCC(O)CCOc1cccc2[nH]c3ccccc3c12 (centres undefined)"
  Category: "active"
- Compound: "CCCCNc1ncc2c(-c3ccc(F)cc3)nn(CC3CCC(N)CC3)c2n1 (centres undefined)"
  Category: "active"
- Compound: "C[n+]1cc2c3c(ccc2c2ccc4cc5c(cc4c21)OCO5)OCO3"
  Category: "active"
- Compound: "CCC[C@@H]1C[C@@H](C(=O)N[C@@H]([C@H]2O[C@H](SC)[C@H](O)[C@@H](O)[C@@H]2O)[C@@H](C)O)N(C)C1"
  Category: "inactive"
- Compound: "CCOc1c2c(c(OCC)c3ccccc13)C(=O)N(c1ccc(CC(=O)NS(=O)(=O)c3ccccc3)cc1)C2"
  Category: "inactive"
- Compound: "CO/N=C(/C(=O)N[C@@H]1C(=O)N2C(C(=O)OCOC(=O)C(C)(C)C)=C(C)CS[C@H]12)c1csc(N)n1"
  Category: "active"
- Compound: "CNS(=O)(=O)c1ccccc1Nc1nc(Nc2ccc(N3CCN(C)CC3)cc2OC)ncc1Br"
  Category: "active"
- Compound: "CCOC(=O)Nc1ccc(NCc2ccc(F)cc2)nc1N"
  Category: "active"
- Compound: "CC(=O)OC1C(C)OC(Oc2c(-c3ccc(O)cc3)oc3cc(O)cc(O)c3c2=O)C(O)C1OC(C)=O (centres undefined)"
  Category: "active"
- Compound: "COc1ccc(S(=O)(=O)Nc2cccnc2Nc2ccc(O)cc2)cc1"
  Category: "active"
- Compound: "Cc1nc(-c2cn3c(n2)-c2ccc(-c4cnn(C(C)(C)C(N)=O)c4)cc2OCC3)n(C(C)C)n1"
  Category: "active"
- Compound: "CCNCCS(=O)(=O)NC[C@@]1(c2ccccc2)SC(NC(=O)C(C)(C)C)=NN1C(=O)C(C)(C)C"
  Category: "active"
- Compound: "CN(Cc1ccccc1)C(=O)c1ccc(S(=O)(=O)Nc2ccccc2)cc1"
  Category: "active"
- Compound: "CN=C(N)NC(=O)Nc1c(C)cccc1C"
  Category: "inactive"
- Compound: "CCc1cc2c(=O)c(-c3nc4ccccc4s3)coc2c(CN2CCCCC2)c1O"
  Category: "inactive"
- Compound: "CC(C)c1ccc2c(c1)c(SC(C)(C)C)c(CC(C)(C)C(=O)O)n2Cc1ccc(Cl)cc1"
  Category: "active"
- Compound: "CCOC(=O)C(C)Oc1cccc2c(=O)n(CC(=O)Nc3ccc4c(c3)OCCO4)ccc12 (centres undefined)"
  Category: "active"
- Compound: "COc1cccc(NC[C@@H](O)Cn2c3ccc(Br)cc3c3cc(Br)ccc32)c1"
  Category: "active"

* * *

# Assay remarks: Quantitative highthroughput screen to assess conditional lethalithy of SEM cells grown in RPMI1640 with unreated serum (RPMI+s) (AID 1963883); further: nearly all actives have a fitted effect of over 35% in size; further: potency means the concentration at half of the fitted maximal effect
# Recorded conditions: SEM B-ALL cells, CellTiter-Glo viability, 48 h; series mostly up to 45.8 µM
Results filed as inconclusive are left out. The source made the active and inactive calls. The call rests on the fitted dose curve; in most records, active means well fitted cell-killing curve with a large enough effect; inconclusive means small, poorly fitted or top-dose-only effect, or effect the other way; inactive means no such curve, though single readings can be large or run the other way.

- Compound: "C[C@H]1[C@H](O)O[C@@H]2O[C@@]3(C)CC[C@@H]4[C@H](C)CC[C@@H]1[C@@]24OO3"
  Potency: "4690 nM (active)"
- Compound: "c1cc(-c2cnn3cc(-c4ccc(OCCN5CCCCC5)cc4)cnc23)ccn1"
  Potency: "inactive"
- Compound: "CN(C)C(=O)[C@H](O)[C@H](Cc1ccccc1)NC(=O)c1cc2cc(Cl)ccc2[nH]1"
  Potency: "2640 nM (active)"
- Compound: "C[C@H]1COC2=C1C(=O)C(=O)c1c2ccc2c1CCCC2(C)C"
  Potency: "2350 nM (active)"
- Compound: "COc1cccc(OC)c1-c1cc(C(=O)NC2(C(=O)O)C3CC4CC(C3)CC2C4)nn1-c1ccnc2cc(Cl)ccc12 (stereo not given)"
  Potency: "inactive"
- Compound: "Nc1ccn([C@@H]2O[C@H](CO)[C@H](O)C2(F)F)c(=O)n1"
  Potency: "16.6 nM (active)"
- Compound: "N[C@@H](C(=O)N[C@@H]1C(=O)N2C(C(=O)O)=C(Cl)CS[C@H]12)c1ccccc1"
  Potency: "inactive"
- Compound: "CCCS(=O)(=O)Nc1ccc(F)c(C(=O)c2c[nH]c3ncc(-c4ccc(Cl)cc4)cc23)c1F"
  Potency: "inactive"
- Compound: "O=C(NCc1ccncc1)C12C[C@H]3C[C@@H](C1)CC(c1ccc(Cl)cc1)(C3)C2"
  Potency: "7430 nM (active)"
- Compound: "CC(C)c1onc(-c2c(Cl)cccc2Cl)c1COc1ccc(C=Cc2cccc(C(=O)O)c2)c(Cl)c1"
  Potency: "inactive"
- Compound: "CC(C=CC1=C(C)CCCC1(C)C)=CC=CC(C)=CC(=O)O"
  Potency: "inactive"
- Compound: "CCc1cc(C(N)=S)ccn1"
  Potency: "8330 nM (active)"
- Compound: "CC(C=CC(=O)NO)=C[C@@H](C)C(=O)c1ccc(N(C)C)cc1"
  Potency: "662 nM (active)"
- Compound: "O=C(CS(=O)Cc1ccco1)NCC=CCOc1cc(CN2CCCCC2)ccn1 (stereo not given)"
  Potency: "inactive"
- Compound: "O=c1[nH]c(-c2ccc(C(F)(F)F)cc2)nc2c1CSCC2"
  Potency: "inactive"
- Compound: "Oc1ccc(-c2nc(-c3ccc(F)cc3)c(-c3ccncc3)[nH]2)cc1"
  Potency: "469 nM (active)"
- Compound: "FC(F)(F)c1ccc(CNc2ccc(Cc3c[nH]c4ncc(Cl)cc34)cn2)cn1"
  Potency: "132 nM (active)"
- Compound: "O=C1CCC[C@@H]2[C@H]3CCC[N+]4([O-])CCC[C@@H](CN12)[C@@H]34 (stereo not given in full)"
  Potency: "7430 nM (active)"
- Compound: "COc1ccc2c(c1OC)C(=O)OC2[C@H]1c2c(cc3c(c2OC)OCO3)CCN1C (stereo not given in full)"
  Potency: "118 nM (active)"
- Compound: "COc1ccc2c(Oc3ccc(NC(=O)c4c(C)n(CC(C)(C)O)n(-c5ccccc5)c4=O)cc3F)ccnc2c1"
  Potency: "3320 nM (active)"
